# SYSTEM_NAME: FRMPD4, Q14CM0
# Sequence (Q14CM0 67-160): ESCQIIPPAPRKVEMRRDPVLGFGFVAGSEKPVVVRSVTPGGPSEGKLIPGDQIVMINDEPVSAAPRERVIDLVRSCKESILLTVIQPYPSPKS
# MEASUREMENT_NOTES: holdup assay
# Parameters: key: below the threshold = too weak to quantify, mostly under pKd 3.1 to 4
# MEASUREMENT_SETUP: plain residues with an end cap or a label only (N-terminal biotin on a linker: ado-ado)
Tick yes (1) if pKd is 4 or greater. Tick no (0) if pKd is less than 4.

Is pKd at least 4? Consider EPQYQPGENL [SRC, P12931] yes (1)

Likewise for DPAESMESLV [PTPRG, P23470] ? no (0)

Likewise for KKMLQRRTLL [OR8G1, Q15617] ? no (0)

Likewise for PSVGSKKTVL [REELD1, A0A1B0GV85] ? no (0)

Likewise for GIKKITSTAL [RPS6KA3, P51812] ? yes (1)

Likewise for QSYPSKHDYV [CLDN18, P56856] ? no (0)

Likewise for PTPDLPQTRV [KLHDC7A, Q5VTJ3] ? no (0)

Likewise for SFISKKEWYV [NECTIN1, Q15223] ? no (0)

Likewise for EIPAQSPTCV [FZD10, Q9ULW2] ? no (0)

Likewise for GTGYDRKDYV [CLDN3, O15551] ? no (0)

Likewise for LKDDELKTKL [SLCO1A2, P46721] ? yes (1)

Likewise for REEPDHSTEV [CCRL2, O00421] ? no (0)
